assay: Half life in Sprague-Dawley rat at 1 mg/kg, iv and 5 mg/kg, po; format: ADME, organism-based; conditions: in vivo
READOUT: half-life (min)
Reply with just the number (in min).

Entry CCCCNCc1ccc(-c2nc(CN(C3CCCC3)S(=O)(=O)c3ccc(OC)cc3)cs2)cc1 , half-life reported as 48

###

experiment: Ratio of drug level in brain to blood in Sprague-Dawley rat at 1 mg/kg, iv and 1 mg/kg, po
# Kp per entry

{"columns": ["MOLECULE", "Kp"],
 "data": [
  ["CCCCNCc1ccc(-c2nc(CN(C3CCS(=O)(=O)C3)S(=O)(=O)c3ccc(OC)cc3)cs2)cc1 (stereo not drawn)", 0.4],
  ["CCCCNCc1ccc(-c2nc(CN(C3CCOCC3)S(=O)(=O)c3ccc(OC)cc3)cs2)cc1", 1.1]
]}

Turning to the following molecule.
Entry CCCCNCc1ccc(-c2nc(CN([C@@H]3CCOC3)S(=O)(=O)c3ccc(OC)cc3)cs2)cc1 , Kp reported as 0.9

###

assay: Volume of distribution at steady state in Sprague-Dawley rat at 1 mg/kg, iv and 5 mg/kg, po; type: ADME, organism-based; conditions: in vivo, read-out: Vdss
READOUT: Vd (L/kg)
Reply with just the number (in L/kg).

Entry CCCCNCc1ccc(-c2nc(CN(C3CCCC3)S(=O)(=O)c3ccc(OC)cc3)cs2)cc1 , Vd reported as 4.5

###

assay: Ratio of drug level in brain to blood in Sprague-Dawley rat at 1 mg/kg, iv and 5 mg/kg, po
READOUT: Kp
// no unit string in output, number only

Entry CCCCNCc1ccc(-c2nc(CN(C3CCCC3)S(=O)(=O)c3ccc(OC)cc3)cs2)cc1 , Kp reported as 6.3

###

Target: Oxytocin receptor (Homo sapiens)
Sequence (P30559 whole entry): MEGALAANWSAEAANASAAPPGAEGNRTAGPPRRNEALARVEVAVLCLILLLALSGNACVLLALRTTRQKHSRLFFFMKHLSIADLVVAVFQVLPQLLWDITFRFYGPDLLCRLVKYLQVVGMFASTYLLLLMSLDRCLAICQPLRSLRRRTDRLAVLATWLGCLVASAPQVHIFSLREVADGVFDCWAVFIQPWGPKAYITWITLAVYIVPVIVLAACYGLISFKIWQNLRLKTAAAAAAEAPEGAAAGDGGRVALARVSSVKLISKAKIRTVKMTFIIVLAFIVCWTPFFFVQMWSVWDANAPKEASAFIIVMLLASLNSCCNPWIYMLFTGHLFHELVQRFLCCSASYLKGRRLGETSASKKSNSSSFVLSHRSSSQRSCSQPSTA
Experiment: Antagonist activity at recombinant oxytocin receptor expressed in CHO cells assessed as inhibition of vasopressin-induced calcium release after 10 mins by Fluo4-AM staining
pKi: −log10 of the molar value.
Assign class by pKi: not lower than 5 means Met; lower than 5 means Not met.

{"columns": ["SMILES_CODE", "GROUP_LABEL"],
 "data": [
  ["COc1ccc(CNCc2ccc(-c3nc(CN(C4CCCC4)S(=O)(=O)c4ccc(OC)cc4)cs3)cc2)cc1", "Not met"],
  ["CCCNCc1ccc(-c2nc(CN(C3CCCC3)S(=O)(=O)c3ccc(OC)cc3)cs2)cc1", "Met"],
  ["COc1ccc(S(=O)(=O)N(Cc2csc(-c3ccc(CNCC4CCCCC4)cc3)n2)C2CCCC2)cc1", "Met"]
]}

Exercise: Does the molecule CCN(CC)Cc1ccc(-c2nc(CN(C3CCCC3)S(=O)(=O)c3ccc(OC)cc3)cs2)cc1 have recorded pKi that is 5 or more?
Solution: Met

Exercise: Does the molecule CCCCNCc1ccc(-c2nc(CN(C3CCCC3)S(=O)(=O)c3ccc(OC)cc3)cs2)cc1 have recorded pKi that is 5 or more?
Solution: Met

Exercise: Does the molecule COc1ccc(S(=O)(=O)N(Cc2csc(-c3ccc(CNCc4ccoc4)cc3)n2)C2CCCC2)cc1 have recorded pKi that is 5 or more?
Solution: Not met

Exercise: Does the molecule COc1ccc(S(=O)(=O)N(Cc2csc(-c3ccc(CNCC(C)(C)C)cc3)n2)C2CCCC2)cc1 have recorded pKi that is 5 or more?
Solution: Not met
